Some molecules, each annotated with its measured Bliss interaction score.
# Test system: S. pneumoniae D39V
# ASSAY PROCEDURE: Bliss interaction score (quartile over a dose matrix) (fitness difference); higher = more antagonism (negative = synergy);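 note: first quartile when negative (synergy) and third quartile when positive (antagonism)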

{"MOLECULE": "N#CC(C#N)=NNc1cccc(Cl)c1 [CCCP] + Cc1ncc([N+](=O)[O-])n1CCO [Metronidazole]", "EXPERIMENTAL SYSTEM": "S. pneumoniae D39V", "Bliss interaction score": 0.12}
{"MOLECULE": "CO/N=C(\\C(=O)N[C@@H]1C(=O)N2C(C(=O)O)=C(COC(N)=O)CS[C@H]12)c1ccco1 [Cefuroxime] + CC[C@H]1OC(=O)[C@H](C)C(=O)[C@H](C)[C@@H](O[C@@H]2O[C@H](C)C[C@H](N(C)C)[C@H]2O)[C@](C)(OC)C[C@@H](C)C(=O)[C@H](C)[C@H]2N(CCCCn3cnc(-c4cccnc4)c3)C(=O)O[C@]12C [Telithromycin]", "EXPERIMENTAL SYSTEM": "S. pneumoniae D39V", "Bliss interaction score": 0.0493}
{"MOLECULE": "COc1cccc2c1C(=O)c1c(O)c3c(c(O)c1C2=O)C[C@@](O)(C(=O)CO)C[C@@H]3O[C@H]1C[C@H](N)[C@H](O)[C@H](C)O1 [Doxorubicin] + CC1=C\\[C@@H](O)CC(=O)Cc2nc(co2)C(=O)N2CCC=C2C(=O)O[C@H](C(C)C)[C@H](C)/C=C/C(=O)NC\\C=C\\1 [Virginiamycin M1]", "EXPERIMENTAL SYSTEM": "S. pneumoniae D39V", "Bliss interaction score": 0.0614}
{"MOLECULE": "C[C@H]1c2cccc(O)c2C(=O)C2=C(O)[C@]3(O)C(=O)C(C(N)=O)=C(O)[C@@H](N(C)C)[C@@H]3[C@@H](O)[C@@H]21 [Doxycycline] + C[C@H]1COc2c(N3CCN(C)CC3)c(F)cc3c(=O)c(C(=O)O)cn1c23 [Levofloxacin]", "EXPERIMENTAL SYSTEM": "S. pneumoniae D39V", "Bliss interaction score": 0.0649}
{"MOLECULE": "N#CC(C#N)=NNc1cccc(Cl)c1 [CCCP] + C[n+]1ccc(-c2cc[n+](C)cc2)cc1 [Paraquat]", "EXPERIMENTAL SYSTEM": "S. pneumoniae D39V", "Bliss interaction score": 0.0866}
{"MOLECULE": "C[C@@H]1O[C@@H]1P(=O)(O)O [Fosfomycin] + CN(C)c1cc(NC(=O)CNC(C)(C)C)c(O)c2c1C[C@H]1C[C@H]3[C@H](N(C)C)C(O)=C(C(N)=O)C(=O)[C@@]3(O)C(O)=C1C2=O [Tigecycline]", "EXPERIMENTAL SYSTEM": "S. pneumoniae D39V", "Bliss interaction score": 0.0555}
{"MOLECULE": "CN(C)[C@@H]1C(O)=C(C(N)=O)C(=O)[C@@]2(O)C(O)=C3C(=O)c4c(O)ccc(Cl)c4[C@@](C)(O)[C@H]3C[C@@H]12 [Clortetracycline] + CC1(C)S[C@@H]2[C@H](NC(=O)Cc3ccccc3)C(=O)N2[C@H]1C(=O)O [PenicillinG]", "EXPERIMENTAL SYSTEM": "S. pneumoniae D39V", "Bliss interaction score": -0.0336}
{"MOLECULE": "C[C@@H]1O[C@@H]1P(=O)(O)O [Fosfomycin] + CO[C@@H]1[C@@H](OC(N)=O)[C@@H](O)[C@H](Oc2ccc3c(O)c(NC(=O)c4ccc(O)c(CC=C(C)C)c4)c(=O)oc3c2C)OC1(C)C [Novobiocin]", "EXPERIMENTAL SYSTEM": "S. pneumoniae D39V", "Bliss interaction score": -0.102}

###

# Test system: S. aureus Newman
# ASSAY PROCEDURE: Bliss interaction score (quartile over a dose matrix) (fitness difference); higher = more antagonism (negative = synergy)
Assign a class from recorded Bliss interaction score; defined classes: low end (below -0.03), middle (-0.03 to below 0.07), high end (0.07 or more)

{"COMPOUND": "CC1(C)S[C@@H]2[C@H](NC(=O)Cc3ccccc3)C(=O)N2[C@H]1C(=O)O [PenicillinG] + CCN(CC)CCOC(=O)c1ccc(N)cc1 [Procaine]", "CATEGORY LABEL": "middle"}
{"COMPOUND": "CO/N=C(\\C(=O)N[C@@H]1C(=O)N2C(C(=O)O)=C(COC(C)=O)CS[C@H]12)c1csc(N)n1 [Cefotaxime] + CC[C@H]1OC(=O)[C@H](C)[C@@H](O[C@H]2C[C@@](C)(OC)[C@@H](O)[C@H](C)O2)[C@H](C)[C@@H](O[C@@H]2O[C@H](C)C[C@H](N(C)C)[C@H]2O)[C@](C)(O)C[C@@H](C)C(=O)[C@H](C)[C@@H](O)[C@]1(C)O [Erythromycin]", "CATEGORY LABEL": "low end"}
{"COMPOUND": "C[C@@H]1O[C@@H]1P(=O)(O)O [Fosfomycin] + CO[C@H]1/C=C/O[C@@]2(C)Oc3c(C)c(O)c4c(O)c(c(/C=N/N5CCN(C)CC5)c(O)c4c3C2=O)NC(=O)/C(C)=C\\C=C\\[C@H](C)[C@H](O)[C@@H](C)[C@@H](O)[C@@H](C)[C@H](OC(C)=O)[C@@H]1C [Rifampicin]", "CATEGORY LABEL": "middle"}
{"COMPOUND": "CO/N=C(\\C(=O)N[C@@H]1C(=O)N2C(C(=O)O)=C(COC(C)=O)CS[C@H]12)c1csc(N)n1 [Cefotaxime] + CN(N=O)C(=O)N[C@@H](C=O)[C@@H](O)[C@H](O)[C@H](O)CO [Streptozotocin]", "CATEGORY LABEL": "low end"}
{"COMPOUND": "Cc1ncc([N+](=O)[O-])n1CCO [Metronidazole] + CN[C@@H]1[C@H](O)[C@H](NC)[C@H]2O[C@@]3(O)C(=O)C[C@@H](C)O[C@H]3O[C@@H]2[C@H]1O [Spectinomycin]", "CATEGORY LABEL": "high end"}
{"COMPOUND": "CC1(C)S[C@@H]2[C@H](NC(=O)Cc3ccccc3)C(=O)N2[C@H]1C(=O)O [PenicillinG] + COc1ccc(C[C@H](N)C(=O)N[C@H]2[C@@H](O)[C@H](n3cnc4c(N(C)C)ncnc43)O[C@@H]2CO)cc1 [Puromycin]", "CATEGORY LABEL": "high end"}
{"COMPOUND": "CC(=O)Oc1ccccc1C(=O)O [Acetylsalicylicacid] + CC(=O)O[C@H]1C[C@@]2(C)[C@@H](C[C@@H](O)[C@H]3[C@@]4(C)CC[C@@H](O)[C@@H](C)[C@@H]4CC[C@@]32C)/C1=C(\\CCC=C(C)C)C(=O)O [Fusidic acid]", "CATEGORY LABEL": "middle"}
{"COMPOUND": "CO/N=C(\\C(=O)N[C@@H]1C(=O)N2C(C(=O)O)=C(COC(N)=O)CS[C@H]12)c1ccco1 [Cefuroxime] + Cc1onc(-c2ccccc2)c1C(=O)N[C@@H]1C(=O)N2[C@@H]1SC(C)(C)[C@@H]2C(=O)O [Oxacillin]", "CATEGORY LABEL": "middle"}
{"COMPOUND": "Cc1ncc([N+](=O)[O-])n1CCO [Metronidazole] + Clc1ccc(COC(Cn2ccnc2)c2ccc(Cl)cc2Cl)c(Cl)c1 [Miconazole]", "CATEGORY LABEL": "middle"}
{"COMPOUND": "N#CC(C#N)=NNc1cccc(Cl)c1 [CCCP] + COc1cc(Cc2cnc(N)nc2N)cc(OC)c1OC [Trimethoprim]", "CATEGORY LABEL": "low end"}
{"COMPOUND": "O=C(O)c1cn(C2CC2)c2cc(N3CCNCC3)c(F)cc2c1=O [Ciprofloxacin] + CCC[C@@H]1C[C@@H](C(=O)N[C@@H]([C@H]2O[C@H](SC)[C@H](O)[C@@H](O)[C@H]2O)[C@@H](C)O)N(C)C1 [Lincomycin]", "CATEGORY LABEL": "high end"}
{"COMPOUND": "C[C@H]1c2cccc(O)c2C(=O)C2=C(O)[C@]3(O)C(=O)C(C(N)=O)=C(O)[C@@H](N(C)C)[C@@H]3[C@@H](O)[C@@H]21 [Doxycycline] + CC[C@H]1OC(=O)[C@H](C)[C@@H](O[C@H]2C[C@@](C)(OC)[C@@H](O)[C@H](C)O2)[C@H](C)[C@@H](O[C@@H]2O[C@H](C)C[C@H](N(C)C)[C@H]2O)[C@](C)(O)C[C@@H](C)C(=O)[C@H](C)[C@@H](O)[C@]1(C)O [Erythromycin]", "CATEGORY LABEL": "middle"}
{"COMPOUND": "Cc1ncc([N+](=O)[O-])n1CCO [Metronidazole] + CN1C2=CC=CC=C2N=C3C1=CC=CC3=O [Pyocyanin]", "CATEGORY LABEL": "high end"}
{"COMPOUND": "CO/N=C(\\C(=O)N[C@@H]1C(=O)N2C(C(=O)O)=C(COC(N)=O)CS[C@H]12)c1ccco1 [Cefuroxime] + CC1=C(C(=O)O)N2C(=O)[C@@H](NC(=O)[C@H](N)c3ccccc3)[C@H]2SC1 [Cephalexin]", "CATEGORY LABEL": "low end"}
{"COMPOUND": "Cc1ncc([N+](=O)[O-])n1CCO [Metronidazole] + C/C(=C\\C(=O)OCCCCCCCCC(=O)O)C[C@@H]1OC[C@H](C[C@@H]2O[C@H]2[C@@H](C)[C@H](C)O)[C@@H](O)[C@H]1O [Pseudomonic acid]", "CATEGORY LABEL": "middle"}
{"COMPOUND": "C[C@@H]1O[C@@H]1P(=O)(O)O [Fosfomycin] + COc1cc(Cc2cnc(N)nc2N)cc(OC)c1OC [Trimethoprim]", "CATEGORY LABEL": "high end"}
